Recorded values, source patent US20250136687A1.

MEASUREMENT_TARGET: human CD3 on the cell surface (Jurkat cells, expanded human T cells, Jurkat-Lucia NFAT cells, human PBMC) (human, UniProt P07766 23-207; P04234 22-171; P09693 23-182)
Sequence (P07766 23-207, chain 1 of 3): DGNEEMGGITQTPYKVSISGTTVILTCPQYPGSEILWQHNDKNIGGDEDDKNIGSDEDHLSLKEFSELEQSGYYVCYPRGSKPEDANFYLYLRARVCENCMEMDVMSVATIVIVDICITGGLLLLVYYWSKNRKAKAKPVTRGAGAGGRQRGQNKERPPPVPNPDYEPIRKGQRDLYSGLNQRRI
Sequence (P04234 22-171, chain 2 of 3): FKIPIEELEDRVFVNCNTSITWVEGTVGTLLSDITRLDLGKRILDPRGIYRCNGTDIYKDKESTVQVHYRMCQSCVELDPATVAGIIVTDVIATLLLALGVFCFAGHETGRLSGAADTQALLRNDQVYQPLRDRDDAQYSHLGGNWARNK
Sequence (P09693 23-182, chain 3 of 3): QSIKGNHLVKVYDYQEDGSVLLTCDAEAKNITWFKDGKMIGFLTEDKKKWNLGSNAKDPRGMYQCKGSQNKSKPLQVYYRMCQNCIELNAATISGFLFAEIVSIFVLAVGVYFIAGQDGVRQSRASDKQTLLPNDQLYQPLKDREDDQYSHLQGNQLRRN
ASSAY_REMARKS: cell-based or functional assay
The reader will find reported Reporter assay (RLU), Jurkat-Lucia NFAT, supernatant diluted by 4 times values listed item by item below.
Report as a plain number; the unit RLU is understood.

Some binders with recorded Reporter assay (RLU), Jurkat-Lucia NFAT, supernatant diluted by 4 times:
BINDER | TEST_VALUE
7-35.6 murine hybridoma antibody (supernatant) (antibody, V domains shown, Tested as hybridoma supernatant) VH: EVQLVESGGGLVQPKGSLKLSCAASGFTFNTYAMNWVRQAPGKGLEWVGRIRSKINNYATYYGDSVKDRFTISRDDSQSMFYLQMNNLKTEDTAMYYCVIHENYGSISWFAYWGQGTLVTVSA VL: QAVVTQESTLTTSPGETVTLTCRSSTGAVTTSNYANWVQEKPDHLFTGLIGGTNNRAPGVPARFSGSLIGDKAALTITGAQTEDEAIYFCALWYSNHWVFGGGTKLTVL | 27400
5-7.13 murine hybridoma antibody (supernatant) (antibody, V domains shown, Tested as hybridoma supernatant) VH: QVQLQQPGTELVKPGASVKLSCKASGYTFTSYWVHWVKQRPGQGLEWIGNINPSDGVTNYNEKFKSRATLTVDKSSSTAYMQLSSLTSEDSAVYYCTRDAYGQYYFDDWGQGTTLTVSS VL: DIVMSQSPSSLVVSAGEKVTMSCKSSQSLLNSRTRKNYLAWYQQKPGQSPKLLIYWASVRDSGVPDRFTGSGSGTDFTLTISNVQAEDLAVYYCIQSYYLRTFGGGTILEIK | 24500

Would you kindly look at the next entry?
Exercise: # query: Reporter assay (RLU), Jurkat-Lucia NFAT, supernatant diluted by 4 times of entry 5-40.21 murine hybridoma antibody (supernatant) (antibody, V domains shown, Tested as hybridoma supernatant) VH: QVQLQQPGSELVRPGASVKLSCKASGYTFTSYWMHWVKQRPGQGLEWIGNTYPGSGSTNYDEKFKSKATLTVDSSSSTAYMQLSSLTSEDSAVYYCTRDRYGVYYFDYWGQGTTLTVSS VL: DIVMSQSPSSLAVSAGEKVTMSCKSSQSLLNSRTRKNYLAWYQQKPGQSPKLLIYWASTRESGVPDRFSGSGSGTDFTLTISSVQAEDLAVYYCTQSYNLRTFGGGTKLEIK
Key: 18900
